Hello, the source for this data is patent EP4722219A1, in case you need it.

Would you mind telling me the reported IC50 of each entry?
Test system: VCaP cells
procedure_text: Inhibition of VCaP cell proliferation (WST-8)
Assay type: cell-based
measurement_conditions: Homo sapiens, 168 hours
Answer format: numeric, nM implied, no suffix.

Task: Tell me reported IC50 for N#Cc1cc2c(cc1Cl)OC1(CCN(c3ccc(C(=O)N4CCC(CN5CCC6(CCc7cc(C(=O)N[C@H]8CCC(=O)NC8=O)c(F)cc7O6)CC5)CC4)cc3)CC1)CO2 , tested with VCaP cells.
Output: 3750

Task: Query COc1cc2c(cc1C(=O)N[C@H]1CCC(=O)NC1=O)C1(CCN(CC3CCN(c4ccc(N5CCC6(CC5)C[C@H](C)N(c5ccc(C#N)c(Cl)c5)C6)cc4)CC3)CC1)CO2 next
Output: 1790
